Source of measurements: ChEMBL document CHEMBL1140109

test: Inhibition of Escherichia coli BL21(DE3) methionine aminopeptidase in presence of Fe(II) metal ions
pIC50: −log10 of the molar value.
# pIC50 >= 5 gives criterion met, anything below gives criterion not met

Sample answers from the record:
# smiles.repr, category
measured = [
    ("O=C(NC1CC1)c1ccc(-c2ccc(O)c(O)c2)s1", "criterion not met"),
    ("Oc1ccc(-c2ccsc2)cc1O", "criterion met"),
    ("Oc1ccc(-c2nccs2)cc1O", "criterion not met"),
]

Determine whether this molecule has pIC50 no lower than 5: `Cc1sc(C)c(-c2ccc(O)c(O)c2)c1Br`
criterion met

* * *

tested on: Priestia megaterium; assay: Antibacterial activity against Bacillus megaterium; assay type: functional, organism-based
measured.property: log10(MIC) (log10 of the value in µg/mL)
The figures below represent log10 of MIC, where MIC is stated in µg/mL.

Guide cases for log10(MIC), answers given:
# smiles.repr, log10(MIC)
measured = [
    ("Oc1ccc(-c2ccc(Cl)s2)cc1O", 0.30),
    ("Oc1ccc(-c2ccsc2)cc1O", 1.00),
    ("O=C(NC1CC1)c1ccsc1-c1ccc(O)c(O)c1", 1.90),
]

Quick batch: log10(MIC) for everything below.
1. Oc1ccc(-c2cccs2)cc1O
2. Cc1sc(C)c(-c2ccc(O)c(O)c2)c1Br
3. O=C(NC1CC1)c1ccc(-c2ccc(O)c(O)c2)s1

[0.95, 1.00, 1.93]
